test_target: EGFR E746-A750 deletion (Homo sapiens, UniProt P00533, DEL746-750)
Sequence (P00533 with tags, fused parts or gaps DEL746-750): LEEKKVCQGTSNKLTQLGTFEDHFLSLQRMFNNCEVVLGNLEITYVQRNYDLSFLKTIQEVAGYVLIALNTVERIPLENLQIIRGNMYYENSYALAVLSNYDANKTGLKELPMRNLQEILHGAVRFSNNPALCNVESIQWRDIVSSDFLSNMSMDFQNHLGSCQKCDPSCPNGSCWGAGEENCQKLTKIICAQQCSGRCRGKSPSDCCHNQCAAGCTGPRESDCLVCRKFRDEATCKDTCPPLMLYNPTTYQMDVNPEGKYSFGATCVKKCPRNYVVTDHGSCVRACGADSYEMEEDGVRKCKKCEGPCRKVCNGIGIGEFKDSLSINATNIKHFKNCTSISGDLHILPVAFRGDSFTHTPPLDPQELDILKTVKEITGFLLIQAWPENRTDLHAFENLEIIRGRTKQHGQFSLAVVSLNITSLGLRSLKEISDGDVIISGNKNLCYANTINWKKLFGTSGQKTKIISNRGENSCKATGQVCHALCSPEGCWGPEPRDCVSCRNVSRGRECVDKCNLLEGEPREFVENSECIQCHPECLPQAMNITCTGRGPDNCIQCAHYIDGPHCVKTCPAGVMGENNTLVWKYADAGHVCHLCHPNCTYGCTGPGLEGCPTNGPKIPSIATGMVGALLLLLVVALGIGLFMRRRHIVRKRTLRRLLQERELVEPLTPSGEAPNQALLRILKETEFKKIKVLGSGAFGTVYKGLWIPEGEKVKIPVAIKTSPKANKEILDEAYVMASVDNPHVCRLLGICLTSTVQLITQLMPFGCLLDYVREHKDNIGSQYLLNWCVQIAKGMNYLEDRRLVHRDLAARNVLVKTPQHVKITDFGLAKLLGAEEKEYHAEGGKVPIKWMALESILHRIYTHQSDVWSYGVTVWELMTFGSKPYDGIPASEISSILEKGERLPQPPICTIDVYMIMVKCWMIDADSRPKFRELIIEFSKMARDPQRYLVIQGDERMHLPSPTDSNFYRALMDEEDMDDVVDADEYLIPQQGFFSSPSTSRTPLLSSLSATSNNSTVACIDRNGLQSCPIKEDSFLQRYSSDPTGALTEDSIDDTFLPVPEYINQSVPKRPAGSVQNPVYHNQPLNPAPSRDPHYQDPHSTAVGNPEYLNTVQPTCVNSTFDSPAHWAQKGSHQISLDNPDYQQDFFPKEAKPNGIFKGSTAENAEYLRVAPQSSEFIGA
protocol_notes: pEGFR Y1068 ELISA assay, NIH3T3/EGFR_E746-A750 deletion cells;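 note: sandwich ELISA on cell lysates detecting phospho-EGFR at Tyr1068, compounds run as 11-point threefold dilution series in duplicate, IC50 from inhibition of this phosphorylation signal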
Format: cell-based
assay_conditions: 3T3 Del cells, 2 hrs compound treatment; read-out: ELISA7E 3T3 Del IC50
measurement_name: IC50 (nM)

a = C=CC(=O)N1C[C@H](COc2nc(Nc3ccn(C)n3)nc3[nH]cc(Cl)c23)[C@@H](OC)C1
b = C=CC(=O)N[C@H]1C[C@@H](Oc2nc(Nc3cnn(C)c3)nc3[nH]cc(-c4cccnc4)c23)C1
c = C=CC(=O)N[C@H]1C[C@@H](Oc2nc(Nc3cnn(C)c3)nc3[nH]cc(C#N)c23)C1 (single isomer, unassigned)
Highest IC50 first, then in falling order down to the smallest. List the labels, following the order given in the request.
c, a, b

----------
Test system: NIH3T3/EGFR_E746-A750_deletion
protocol_notes: Cell proliferation assay (CellTiter-Glo), NIH3T3/EGFR_E746-A750_deletion
Format: cell-based
assay_conditions: Mus musculus, NIH3T3, 120 h, 3T3 cell line, three to five days of compound treatment, read-out: 3T3 del IC50
pIC50: −log10 of the molar value.
measurement_name: pIC50

Look over these answered cases.
C=CC(=O)Nc1cc(F)cc(Oc2nc(Nc3cnn([C@@H]4CCN(C)C4)c3)nc3[nH]ccc23)c1 = > 8.00
C=CC(=O)N(C)[C@H]1C[C@H](Oc2nc(Nc3cn(C)nc3C)nc3[nH]cc(Cl)c23)C1 = 7.00 to 8.00

// next item, pIC50 requested
For the molecule C=CC(=O)Nc1cccc(Oc2nc(Nc3cnn(C)c3)nc3[nH]cc(C#N)c23)c1 , give its reported pIC50.
> 8.00

----------
Each entry below lists one item and its recorded IC50 value.
test_target: EGFR wildtype, endogenous (Homo sapiens)
Construct: A549 (EGFR wildtype, endogenous)
Sequence (P00533 25-1210): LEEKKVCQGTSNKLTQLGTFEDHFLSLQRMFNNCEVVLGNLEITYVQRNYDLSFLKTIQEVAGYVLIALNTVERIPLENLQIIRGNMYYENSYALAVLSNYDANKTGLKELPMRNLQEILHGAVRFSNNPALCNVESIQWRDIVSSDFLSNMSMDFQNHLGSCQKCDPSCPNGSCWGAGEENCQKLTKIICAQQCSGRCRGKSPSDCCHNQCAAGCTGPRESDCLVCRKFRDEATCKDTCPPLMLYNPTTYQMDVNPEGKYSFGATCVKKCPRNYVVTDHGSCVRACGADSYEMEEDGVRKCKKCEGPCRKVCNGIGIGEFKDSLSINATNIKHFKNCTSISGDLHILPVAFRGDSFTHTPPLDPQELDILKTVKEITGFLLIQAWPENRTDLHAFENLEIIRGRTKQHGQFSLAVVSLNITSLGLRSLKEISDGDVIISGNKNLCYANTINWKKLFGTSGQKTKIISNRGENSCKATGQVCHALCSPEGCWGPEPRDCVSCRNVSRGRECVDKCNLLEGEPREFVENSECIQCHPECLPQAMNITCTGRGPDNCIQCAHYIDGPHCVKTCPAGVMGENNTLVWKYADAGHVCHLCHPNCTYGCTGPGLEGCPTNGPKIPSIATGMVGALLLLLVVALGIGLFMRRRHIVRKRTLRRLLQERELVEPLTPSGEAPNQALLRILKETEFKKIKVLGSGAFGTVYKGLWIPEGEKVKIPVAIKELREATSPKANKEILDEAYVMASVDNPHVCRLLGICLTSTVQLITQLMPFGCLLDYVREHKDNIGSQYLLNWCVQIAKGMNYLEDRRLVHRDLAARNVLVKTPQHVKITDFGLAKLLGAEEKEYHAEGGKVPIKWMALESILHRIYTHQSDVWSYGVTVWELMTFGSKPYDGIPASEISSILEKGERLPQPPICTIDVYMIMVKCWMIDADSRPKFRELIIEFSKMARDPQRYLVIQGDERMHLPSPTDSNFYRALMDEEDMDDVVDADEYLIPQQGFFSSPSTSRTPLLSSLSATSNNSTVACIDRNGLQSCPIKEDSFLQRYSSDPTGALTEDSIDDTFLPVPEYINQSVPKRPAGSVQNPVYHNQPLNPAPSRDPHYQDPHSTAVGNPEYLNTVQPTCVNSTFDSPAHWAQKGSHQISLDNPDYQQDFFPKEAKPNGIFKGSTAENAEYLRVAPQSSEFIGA
protocol_notes: pEGFR Y1068 ELISA assay, A549 cells;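 note: sandwich ELISA of phospho-EGFR Tyr1068 in cell lysates, cells exposed to compound for 2 h before EGF stimulation, 11-point threefold dilution series run in duplicate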
assay_conditions: full serum media, stimulated 10 min with EGF (40 ng/mL), read-out: pEGFRY1068 ELISAA549 IC50

C=CC(=O)N[C@]1(C)C[C@H](Oc2nc(Nc3cnn(C)c3)nc3[nH]cc(Cl)c23)C1 = > 10 µM
C=CC(=O)N1C[C@H](COc2nc(Nc3cnn(C)c3)nc3[nH]ccc23)[C@@H](C)C1 (single isomer, unassigned) = > 10 µM
C=CC(=O)Nc1cccc(Oc2nc(Nc3cnn(C)c3)nc3[nH]cc(C#N)c23)c1 = > 10 µM
C=CC(=O)N1C[C@H](COc2nc(Nc3cn(C)nc3CC)nc3[nH]cc(F)c23)[C@@H](OC)C1 = > 10 µM
C=CC(=O)N1C[C@H](COc2nc(Nc3cnn(CC)n3)nc3[nH]cc(Cl)c23)[C@@H](OC)C1 = > 10 µM

Give IC50 for this entry on EGFR wildtype, endogenous (Homo sapiens): C=CC(=O)N(C)[C@H]1C[C@H](Oc2nc(Nc3cnn(C)c3)nc3[nH]cc(-c4cnn(C)c4)c23)C1
> 10 µM

----------
test_target: EGFR L858R+T790M (Homo sapiens, UniProt P00533, L858R/T790M)
Sequence (P00533 25-1210 T790M/L858R): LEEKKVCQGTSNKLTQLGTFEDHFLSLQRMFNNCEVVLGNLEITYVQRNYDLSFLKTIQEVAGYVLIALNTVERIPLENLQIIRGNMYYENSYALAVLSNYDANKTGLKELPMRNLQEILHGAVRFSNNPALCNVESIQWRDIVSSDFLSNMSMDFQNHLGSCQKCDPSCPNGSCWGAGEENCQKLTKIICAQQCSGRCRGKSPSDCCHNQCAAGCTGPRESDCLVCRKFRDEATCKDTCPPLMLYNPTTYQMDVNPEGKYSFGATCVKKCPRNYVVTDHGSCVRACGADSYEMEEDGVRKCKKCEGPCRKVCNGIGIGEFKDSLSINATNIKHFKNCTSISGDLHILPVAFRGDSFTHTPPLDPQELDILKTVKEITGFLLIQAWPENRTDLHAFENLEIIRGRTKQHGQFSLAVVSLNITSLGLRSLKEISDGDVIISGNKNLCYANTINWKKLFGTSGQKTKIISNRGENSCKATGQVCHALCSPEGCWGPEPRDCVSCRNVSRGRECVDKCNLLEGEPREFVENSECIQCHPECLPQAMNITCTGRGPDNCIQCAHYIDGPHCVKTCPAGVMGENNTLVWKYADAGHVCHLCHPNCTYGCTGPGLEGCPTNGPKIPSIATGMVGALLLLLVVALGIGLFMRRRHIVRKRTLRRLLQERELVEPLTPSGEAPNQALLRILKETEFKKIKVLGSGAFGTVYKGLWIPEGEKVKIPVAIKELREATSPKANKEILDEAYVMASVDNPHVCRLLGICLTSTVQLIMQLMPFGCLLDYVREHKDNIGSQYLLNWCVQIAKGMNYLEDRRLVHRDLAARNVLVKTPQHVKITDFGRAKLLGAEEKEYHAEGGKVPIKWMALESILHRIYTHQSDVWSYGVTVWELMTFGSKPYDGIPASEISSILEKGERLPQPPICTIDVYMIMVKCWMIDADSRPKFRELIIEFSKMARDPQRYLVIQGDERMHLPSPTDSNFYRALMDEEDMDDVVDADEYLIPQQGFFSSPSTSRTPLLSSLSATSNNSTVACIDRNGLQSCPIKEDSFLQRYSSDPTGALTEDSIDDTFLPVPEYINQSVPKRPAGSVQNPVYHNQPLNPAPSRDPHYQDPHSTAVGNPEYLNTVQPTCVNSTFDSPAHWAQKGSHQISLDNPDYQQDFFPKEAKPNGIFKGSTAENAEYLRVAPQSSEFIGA
protocol_notes: pEGFR Y1068 ELISA assay, NIH3T3/EGFR_L858R+T790M cells
assay_conditions: 3T3 cell line, 2 hrs compound treatment; read-out: pEGFRY1068 ELISA3T3T790M—L858R IC50
pIC50: −log10 of the molar value.
measurement_name: pIC50

See these solved cases before continuing.
C=CC(=O)Nc1cccc(Oc2nc(Nc3cnn(C4CCN(C)CC4)c3)nc3[nH]ccc23)c1 [Example 33] = 7.70
C=CC(=O)Nc1cccc(Oc2nc(Nc3ccn(C)n3)nc3[nH]cc(F)c23)c1 [Example 1] = 7.48

I = C=CC(=O)Nc1cccc(Oc2nc(Nc3cnn(C)c3)nc3[nH]cnc23)c1 [Example 54]
II = C=CC(=O)Nc1cccc(Oc2nc(Nc3cc(C)nn3C)nc3[nH]ccc23)c1 [Example 26]
Which value of pIC50 is numerically greater: that of I or that of II ? Give the label of your selection.
II

Provenance of the data: patent US9040547B2
